Values from the supplement of paper PMC10567573

B1: MFF (parent)
chain: MAEISRIQYEMEYTEGISQRMRVP

Variants of: B1
Experiment: protein stability index of a GFP-peptide fusion (GPS, HEK-293T) (PSI 1-6); higher = more stable;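 further: lentivirally expressed fusions sorted by FACS into six bins by GFP to DsRed ratio, PSI derived from sequencing read proportions per bin multiplied by bin number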
Conditions: c terminus: a fixed tail appended
PROPERTY_LABEL: protein stability index

Example entries begin here.
E12Y :: 1.76
E15A :: 2.1
Y13T :: 3.46
A2R :: 2.54
Q19T :: 2.66
R6K :: 3.15
M1S :: 3.01
G16S :: 2.2
I17H :: 3.4
R6F :: 2.06

Query :: Bench note: what protein stability index did "R22S" show?
Result :: 2.44

Query :: Need protein stability index, item "P24F"
Result :: 1.54

Query :: Bench note: what protein stability index did "R6A" show?
Result :: 3.16
